# Test system: Plasmodium falciparum
# protocol.details: MMV: Measure of pLDH activity as indication of parasite viability. Gametocytogenesis of 3D7 Plasmodium falciparum strain was induced in vitro and asexual parasites were depleted with N-acetylglucosamine. Gametocytes were treated with dihydroartemisinin, epoxomicin, methylene blue, primaquine, puromycin or chloroquine in 96-well plates and the pLDH activity was evaluated using a modified Makler protocol. Mosquito infectivity was measured by the standard membrane feeding assay.
# Type: functional
# Parameters: concentration or dose not given beside the values
The entries below come with measured Growth Inhibition values attached.

{"molecule": "CCC(=O)Nc1nnc(Cc2ccc(OC)c(OC)c2)s1", "unit.abbreviation": "%", "Growth Inhibition": 9.8854}
{"molecule": "CC(NCc1ccccc1)c1cc(Cl)ccc1O (centres undefined)", "unit.abbreviation": "%", "Growth Inhibition": 40.6308}
{"molecule": "O=C(O)C(=O)O.Oc1ccc(Br)cc1CN1CCN(Cc2cccc(F)c2)CC1", "unit.abbreviation": "%", "Growth Inhibition": 29.456}
{"molecule": "CCOc1c(Cl)cc(CNCC(O)c2ccccc2)cc1OC (centres undefined)", "unit.abbreviation": "%", "Growth Inhibition": 20.5848}
{"molecule": "Cc1cc(Nc2cccc(F)c2)nc(NCc2ccccc2)n1", "unit.abbreviation": "%", "Growth Inhibition": 7.8192}
{"molecule": "Cc1ccc(NC(=O)Nc2cccc(Cl)c2)cc1F", "unit.abbreviation": "%", "Growth Inhibition": 3.3088}
{"molecule": "O=C(Nc1ccc(CN2CCOCC2)cc1)c1ccc(-c2cc(Cl)ccc2Cl)o1", "unit.abbreviation": "%", "Growth Inhibition": 12.3128}
{"molecule": "Cc1ccc(OCCCCCCNCCO)c(C)c1", "unit.abbreviation": "%", "Growth Inhibition": 3.067}
{"molecule": "CCCc1c(C)nc2ccc(Br)cc2c1O", "unit.abbreviation": "%", "Growth Inhibition": 51.0245}

###

The entries below come with measured Growth Inhibition values attached.
# Tested on: Plasmodium falciparum
# protocol.details: MMV: Measure of pLDH activity as indication of parasite viability. Gametocytogenesis of 3D7 Plasmodium falciparum strain was induced in vitro and asexual parasites were depleted with N-acetylglucosamine. Gametocytes were treated with dihydroartemisinin, epoxomicin, methylene blue, primaquine, puromycin or chloroquine in 96-well plates and the pLDH activity was evaluated using a modified Makler protocol. Mosquito infectivity was measured by the standard membrane feeding assay.
# Assay type: functional
# Parameters: concentration or dose not given beside the values

{"molecule": "COc1cc(-c2nc(-c3ccc(Sc4ccccc4)cc3)c(-c3ccccc3)[nH]2)cc(OC)c1O", "Growth Inhibition, %": 10.5558}
{"molecule": "CN1C=C(c2ccc3ccccc3n2)C(c2c[nH]c3ccccc23)c2ccccc21 (stereo not drawn)", "Growth Inhibition, %": 12.6514}
{"molecule": "Cc1nc2ccccc2c(O)c1CC=C(Cl)Cl", "Growth Inhibition, %": 28.4855}
{"molecule": "Cc1cc(NCCN2CCCCC2)c2ccc3ccccc3c2n1", "Growth Inhibition, %": 17.8584}
{"molecule": "COc1ccc(-c2nc3cc(Cc4ccc5[nH]c(-c6ccc(OC)cc6)nc5c4)ccc3[nH]2)cc1", "Growth Inhibition, %": 4.7376}
{"molecule": "Cc1c(C)n(Cc2ccc(F)cc2)c2ccc(C(=O)NCc3ccco3)cc12", "Growth Inhibition, %": 19.2814}
{"molecule": "COC(=O)c1ccc(C2C3=C(O)CC(c4ccc(F)cc4)CC3=Nc3ccccc3N2C(=O)c2ccccc2)cc1 (stereo not drawn)", "Growth Inhibition, %": 56.5126}
{"molecule": "OC(CNC1CCCCC1)Cn1c2ccccc2c2ccccc21 (stereo not drawn)", "Growth Inhibition, %": 33.5526}
{"molecule": "CN(C)c1ccc(-c2nc3cc(N)ccc3[nH]2)cc1", "Growth Inhibition, %": 18.3914}
{"molecule": "CCOc1c(Br)cc(C2C(C(=O)OC)=CN(C)C=C2C(=O)OC)cc1OC", "Growth Inhibition, %": 11.9416}
{"molecule": "CN(C)CCCNCc1ccc(-c2ccc(F)c(Cl)c2)o1.Cl", "Growth Inhibition, %": 63.9166}
{"molecule": "Br.CCN(CC)S(=O)(=O)c1ccc(-c2csc(Nc3ccc(C)c(C)c3)n2)cc1", "Growth Inhibition, %": 9.3564}
{"molecule": "CCOc1ccc(-n2cc(-c3ccccc3)c3c(SCc4cc(C)ccc4C)ncnc32)cc1", "Growth Inhibition, %": 2.789}
